- Target of assay: aromatase (Homo sapiens)
- Construct: JEG-3 which constitutively expresses high amount of aromatase and steroid sulfatase; endogenous in cells
- Sequence (P11511 1-503): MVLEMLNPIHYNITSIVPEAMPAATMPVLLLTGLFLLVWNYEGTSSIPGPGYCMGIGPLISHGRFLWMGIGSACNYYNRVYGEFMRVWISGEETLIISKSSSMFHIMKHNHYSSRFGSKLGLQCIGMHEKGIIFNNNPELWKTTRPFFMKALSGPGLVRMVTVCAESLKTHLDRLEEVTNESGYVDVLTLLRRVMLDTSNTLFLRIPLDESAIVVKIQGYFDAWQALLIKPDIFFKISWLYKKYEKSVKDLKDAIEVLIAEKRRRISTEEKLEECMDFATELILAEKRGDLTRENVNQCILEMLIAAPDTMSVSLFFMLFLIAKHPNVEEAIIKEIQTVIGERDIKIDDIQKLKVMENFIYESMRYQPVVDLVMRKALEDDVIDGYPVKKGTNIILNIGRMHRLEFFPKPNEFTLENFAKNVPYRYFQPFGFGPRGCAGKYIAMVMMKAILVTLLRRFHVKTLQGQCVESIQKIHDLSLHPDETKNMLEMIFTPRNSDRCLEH
- Assay notes: Aromatase inhibition assay in JEG-3 cells ([1β-3H] androstenedione, tritiated water release)
- Condition: 1.25 hour incubation, duplicate
pIC50: −log10 of the molar value.
Quantity: pIC50

Smiles representation	Target of assay	pIC50
N#Cc1ccc(Nn2cnc3ccccc32)cc1-c1ccc(OS(N)(=O)=O)cc1	aromatase (Homo sapiens)	8.70

[P] N#Cc1ccc(Cn2cnc3cc(F)c(F)cc32)cc1-c1ccc(OS(N)(=O)=O)cc1
[Q] CN(c1ccc(C#N)c(-c2ccc(OS(N)(=O)=O)cc2)n1)n1cnc2cccnc21
[R] N#Cc1ncc(Cn2cnc3cc(F)c(F)cc32)cc1-c1ccc(OS(N)(=O)=O)cc1
Sort the compounds on pIC50; start with the lowest figure. As an answer, provide the labels arranged in the order called for.
Q, R, P

[A] CSc1cc(-c2cc(Nn3cnc4ccccc43)ccc2C#N)ccc1OS(N)(=O)=O
[B] CN(c1ccc(C#N)c(-c2ccc(OS(N)(=O)=O)cc2)n1)n1cnc2ccccc21
Between item A and item B , which reported pIC50 is smaller? Kindly state the label of the option you pick.
B

[P] N#Cc1cnc(Nn2cnc3ccccc32)cc1-c1ccc(OS(N)(=O)=O)cc1
[Q] CN(c1cnc(C#N)c(-c2ccc(OS(N)(=O)=O)cc2)n1)n1cnc2cccnc21
Between P and Q , whose measured pIC50 reads higher? Kindly state the label of the option you pick.
P

----------
- Target of assay: aromatase (Homo sapiens, UniProt P11511)
- Construct: JEG-3 which constitutively expresses high amount of aromatase and steroid sulfatase; endogenous in cells
- Sequence (P11511 1-503): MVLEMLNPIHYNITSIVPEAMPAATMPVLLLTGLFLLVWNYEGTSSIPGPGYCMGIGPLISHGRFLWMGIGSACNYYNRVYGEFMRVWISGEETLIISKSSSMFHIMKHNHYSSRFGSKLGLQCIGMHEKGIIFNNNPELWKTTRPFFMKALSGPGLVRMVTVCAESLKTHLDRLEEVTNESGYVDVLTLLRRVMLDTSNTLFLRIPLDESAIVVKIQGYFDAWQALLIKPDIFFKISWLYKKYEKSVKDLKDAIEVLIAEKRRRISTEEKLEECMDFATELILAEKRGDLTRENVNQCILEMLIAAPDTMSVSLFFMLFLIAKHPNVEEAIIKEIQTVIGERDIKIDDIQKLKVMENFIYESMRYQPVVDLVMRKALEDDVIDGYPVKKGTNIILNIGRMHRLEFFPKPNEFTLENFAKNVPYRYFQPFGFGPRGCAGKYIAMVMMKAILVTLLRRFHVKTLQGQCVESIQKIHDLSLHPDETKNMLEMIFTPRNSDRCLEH
- Assay notes: Aromatase inhibition assay in JEG-3 cells ([1β-3H] androstenedione, tritiated water release)
- Condition: 1.25 hour incubation, duplicate
pIC50: −log10 of the molar value.
Quantity: pIC50

Completed entries (count: 5):
Compound	Quantity	Numeric result
N#Cc1ccc(Cn2cnc3cccnc32)nc1-c1ccc(OS(N)(=O)=O)cc1 [Example 14]	pIC50	8.15
N#Cc1ccc(Nn2nnc3ccccc32)cc1-c1ccc(OS(N)(=O)=O)cc1 [Example 11]	pIC50	8.92
CN(c1ccc(C#N)c(-c2ccc(OS(N)(=O)=O)cc2)c1)n1cnc2ccccc21 [Example 5]	pIC50	8.49
CN(c1ccc(C#N)c(-c2ccc(OS(N)(=O)=O)cn2)c1)n1cnc2ccccc21 [Example 37]	pIC50	8.62
CN(c1ncc(C#N)c(-c2ccc(OS(N)(=O)=O)cc2)n1)n1cnc2cccnc21 [Example 48]	pIC50	8.24

[I] CN(c1cnc(C#N)c(-c2ccc(OS(N)(=O)=O)cc2)c1)n1cnc2ccccc21 [Example 39]
[II] N#Cc1ccc(Cn2cnc3cccnc32)cc1-c1ccc(OS(N)(=O)=O)cn1 [Example 33]
[III] N#Cc1cnc(Cn2cnc3ccccc32)nc1-c1ccc(OS(N)(=O)=O)cc1 [Example 9]
Sort the 3 compounds by pIC50; largest first, smallest last. As an answer, provide the labels arranged in the order called for.
I, III, II

----------
- Target of assay: steroid sulfatase (Homo sapiens, UniProt P08842)
- Construct: JEG-3 which constitutively expresses high amount of aromatase and steroid sulfatase; endogenous in cells
- Sequence (P08842 22-583): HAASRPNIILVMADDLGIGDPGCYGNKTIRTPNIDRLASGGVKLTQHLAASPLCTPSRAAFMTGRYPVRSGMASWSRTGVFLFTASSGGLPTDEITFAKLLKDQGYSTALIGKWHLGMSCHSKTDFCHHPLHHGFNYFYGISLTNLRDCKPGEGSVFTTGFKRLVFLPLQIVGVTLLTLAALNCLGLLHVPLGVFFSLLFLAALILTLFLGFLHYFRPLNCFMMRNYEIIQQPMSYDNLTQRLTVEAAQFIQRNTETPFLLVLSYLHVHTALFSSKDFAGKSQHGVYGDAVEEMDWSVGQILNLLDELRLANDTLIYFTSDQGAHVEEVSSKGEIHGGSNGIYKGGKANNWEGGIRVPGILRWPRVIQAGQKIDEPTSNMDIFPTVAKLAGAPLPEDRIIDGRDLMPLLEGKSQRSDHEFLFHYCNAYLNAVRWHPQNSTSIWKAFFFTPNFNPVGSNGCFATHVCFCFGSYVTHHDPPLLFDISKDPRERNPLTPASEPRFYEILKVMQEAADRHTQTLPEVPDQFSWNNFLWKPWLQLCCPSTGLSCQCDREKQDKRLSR
- Assay notes: Steroid sulfatase (STS) inhibition assay in JEG-3 cells ([6,7-3H] estrone sulfate)
- Condition: 1 hour at 37° C., duplicate
Quantity: IC50 (nM)

Compound	Quantity	Numeric result
N#Cc1ccc(Nn2cnc3ccccc32)cc1-c1ccc(OS(N)(=O)=O)cn1 [Example 41]	IC50	9.3
CN(c1ccc(C#N)c(-c2ccc(OS(N)(=O)=O)cc2)n1)n1cnc2ccccc21 [Example 23]	IC50	7.1
N#Cc1ccc(Cn2cnc3cccnc32)cc1-c1ccc(OS(N)(=O)=O)cc1 [Example 12]	IC50	7
N#Cc1ccc(Cn2cnc3ccccc32)cc1-c1ccc(OS(N)(=O)=O)cn1 [Example 30]	IC50	7.2

----------
- Target of assay: steroid sulfatase (Homo sapiens, UniProt P08842)
- Construct: JEG-3 which constitutively expresses high amount of aromatase and steroid sulfatase; endogenous in cells
- Assay notes: Steroid sulfatase (STS) inhibition assay in JEG-3 cells ([6,7-3H] estrone sulfate)
- Condition: 1 hour at 37° C., duplicate
pIC50: −log10 of the molar value.
Quantity: pIC50

Completed entries (count: 2):
Smiles representation	Target of assay	pIC50
N#Cc1ccc(Cn2cnc3cccnc32)cc1-c1ccc(OS(N)(=O)=O)cn1	steroid sulfatase (Homo sapiens, UniProt P08842)	7.75
N#Cc1ccc(Nn2cnc3cccnc32)nc1-c1ccc(OS(N)(=O)=O)cc1	steroid sulfatase (Homo sapiens, UniProt P08842)	7.40

[1] N#Cc1ccc(Cn2nnc3ccccc32)cc1-c1ccc(OS(N)(=O)=O)cc1
[2] Cc1nc2ccccc2n1Cc1ccc(C#N)c(-c2ccc(OS(N)(=O)=O)cc2)c1
[3] N#Cc1cnc(Cn2cnc3ccccc32)cc1-c1ccc(OS(N)(=O)=O)cc1
[4] N#Cc1cnc(Nn2cnc3cccnc32)nc1-c1ccc(OS(N)(=O)=O)cc1
Sort the 4 compounds by pIC50; largest first, smallest last. As an answer, provide the labels arranged in the order called for.
3, 1, 2, 4

----------
- Target of assay: aromatase (Homo sapiens, UniProt P11511)
- Construct: JEG-3 which constitutively expresses high amount of aromatase and steroid sulfatase; endogenous in cells
- Assay notes: Aromatase inhibition assay in JEG-3 cells ([1β-3H] androstenedione, tritiated water release)
- Condition: 1.25 hour incubation, duplicate
pIC50: −log10 of the molar value.
Quantity: pIC50

Completed entries (count: 3):
Smiles representation	Target of assay	pIC50
N#Cc1ncc(Cn2cnc3cccnc32)cc1-c1ccc(OS(N)(=O)=O)cc1	aromatase (Homo sapiens, UniProt P11511)	7.79
N#Cc1ncc(Cn2cnc3ccccc32)cc1-c1ccc(OS(N)(=O)=O)cc1	aromatase (Homo sapiens, UniProt P11511)	8.34
N#Cc1ccc(Nn2cnc3ccccc32)cc1-c1ccc(OS(N)(=O)=O)cn1	aromatase (Homo sapiens, UniProt P11511)	8.70

[a] N#Cc1cnc(Cn2cnc3ccccc32)cc1-c1ccc(OS(N)(=O)=O)cc1
[b] N#Cc1ccc(Cn2cnc3ccccc32)nc1-c1ccc(OS(N)(=O)=O)cn1
[c] N#Cc1ncc(Nn2cnc3cccnc32)cc1-c1ccc(OS(N)(=O)=O)cc1
[d] CSc1cc(-c2cc(N(C)n3cnc4ccccc43)ccc2C#N)ccc1OS(N)(=O)=O
[e] N#Cc1ccc(Nn2cnc3cccnc32)nc1-c1ccc(OS(N)(=O)=O)cc1
Sort the 5 compounds by pIC50; largest first, smallest last. As an answer, provide the labels arranged in the order called for.
a, d, c, e, b
(a: 8.66, d: 8.34, c: 7.93, e: 7.66, b: 7.38)

[A] N#Cc1cnc(Cn2cnc3cc(F)c(F)cc32)nc1-c1ccc(OS(N)(=O)=O)cc1
[B] N#Cc1ccc(N(CC2CC2)n2cnc3ccccc32)cc1-c1ccc(OS(N)(=O)=O)cc1
Between A and B , whose measured pIC50 reads higher? Kindly state the label of the option you pick.
A
(A: 8.54, B: 7.27)

[A] CSc1ccc(-c2cc(Cn3cnc4ccccc43)ccc2C#N)cc1OS(N)(=O)=O
[B] N#Cc1cnc(Nn2cnc3ccccc32)nc1-c1ccc(OS(N)(=O)=O)cc1
Between A and B , whose measured pIC50 reads higher? Kindly state the label of the option you pick.
A
(A: 8.66, B: 7.76)
